B1: TPR 5TU (parent)
chain: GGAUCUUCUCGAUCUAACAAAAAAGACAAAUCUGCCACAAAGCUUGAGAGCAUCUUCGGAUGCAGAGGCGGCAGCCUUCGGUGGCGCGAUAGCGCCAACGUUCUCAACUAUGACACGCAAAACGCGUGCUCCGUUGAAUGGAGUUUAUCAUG

variants of: B1; test: polymerase ribozyme fitness, log enrichment relative to wild type (log ratio); higher = more active; in vitro selection for triplet polymerase activity
Fewer inactive variants are shown than the library holds.
Measured Endpoint: polymerase ribozyme fitness (log ratio)

INSERT INTO results (alteration, observed_value) VALUES
  ('C38A G83U C96G U144A', -0.619),
  ('A49C G81C C85U A98U U104C', '≤ -4.2'),
  ('C18U A47C C79G G88A A91C A121U U148G', '≤ -4.2'),
  ('G94C G100U', -3.69),
  ('A29U U104C', -4.14),
  ('U31G A37C U61A G126C U145C', '≤ -4.2');

Batch request: polymerase ribozyme fitness (log ratio) per item, same order as input.
1. A20C C32G G59C C85U C95G A97G G140A U151C
2. G59U C87G C95U U101G C149G

stdout:
1: ≤ -4.2; 2: ≤ -4.2
